# TARGET DESC: MDR1 (ABCB1, P-glycoprotein) (Homo sapiens)
# Sequence (P08183 whole entry): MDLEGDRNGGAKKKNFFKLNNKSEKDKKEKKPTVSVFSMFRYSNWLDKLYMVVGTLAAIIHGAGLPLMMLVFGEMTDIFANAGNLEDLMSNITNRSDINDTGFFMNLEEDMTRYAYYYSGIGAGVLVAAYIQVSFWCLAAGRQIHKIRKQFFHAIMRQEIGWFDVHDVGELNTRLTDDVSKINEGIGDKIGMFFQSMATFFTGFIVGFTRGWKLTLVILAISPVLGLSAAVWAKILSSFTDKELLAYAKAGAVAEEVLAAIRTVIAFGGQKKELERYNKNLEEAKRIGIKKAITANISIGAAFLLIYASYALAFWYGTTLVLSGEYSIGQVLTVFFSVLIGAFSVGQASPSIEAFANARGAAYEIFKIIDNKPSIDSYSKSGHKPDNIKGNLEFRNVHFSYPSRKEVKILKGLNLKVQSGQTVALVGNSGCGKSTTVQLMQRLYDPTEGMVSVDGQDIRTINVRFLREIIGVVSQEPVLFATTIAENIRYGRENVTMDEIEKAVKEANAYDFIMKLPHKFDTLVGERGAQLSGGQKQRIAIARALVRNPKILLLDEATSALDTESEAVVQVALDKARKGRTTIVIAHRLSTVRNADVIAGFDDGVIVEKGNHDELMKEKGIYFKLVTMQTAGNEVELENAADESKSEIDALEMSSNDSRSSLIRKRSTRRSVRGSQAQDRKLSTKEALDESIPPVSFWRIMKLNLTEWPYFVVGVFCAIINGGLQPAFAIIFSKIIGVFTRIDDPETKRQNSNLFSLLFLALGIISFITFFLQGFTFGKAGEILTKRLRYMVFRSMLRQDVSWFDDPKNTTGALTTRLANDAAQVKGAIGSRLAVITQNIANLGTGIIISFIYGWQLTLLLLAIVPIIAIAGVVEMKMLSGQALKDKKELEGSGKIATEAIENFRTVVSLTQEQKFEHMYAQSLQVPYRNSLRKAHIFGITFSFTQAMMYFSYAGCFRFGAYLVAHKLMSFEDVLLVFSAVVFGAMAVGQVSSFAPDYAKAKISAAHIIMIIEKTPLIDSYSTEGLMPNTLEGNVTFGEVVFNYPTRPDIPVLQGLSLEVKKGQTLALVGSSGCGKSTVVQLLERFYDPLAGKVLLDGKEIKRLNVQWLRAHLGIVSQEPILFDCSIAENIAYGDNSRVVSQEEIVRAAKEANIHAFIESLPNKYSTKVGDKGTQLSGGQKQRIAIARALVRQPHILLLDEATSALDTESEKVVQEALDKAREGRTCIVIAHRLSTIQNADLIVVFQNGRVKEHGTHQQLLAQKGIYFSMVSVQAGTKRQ
# PROTOCOL DETAILS: Inhibition of MDR1 overexpressed in MDCK cells at 25 uM relative to LSN335984
# Format: cell-based
# TEST SETTINGS: dog, MDCK-MDR1
Class Fulfilled: inhibition at 25 µM at least 20%. Class Not fulfilled: inhibition at 25 µM below 20%.

Determine whether measured inhibition at 25 µM meets or exceeds 20% for `Cc1cc(-c2ccc(N(C)C)cc2)cc(-c2ccc(N(C)C)cc2)[s+]1.[I-]`
Fulfilled

Does the molecule `CN(C)c1ccc(-c2cc(-c3ccc(N)cc3)[s+]c(-c3ccc(N(C)C)cc3)c2)cc1.F[P-](F)(F)(F)(F)F` have recorded inhibition at 25 µM that is 20% or more?
Not fulfilled

Does the reported inhibition at 25 µM for `CN(C)c1ccc(-c2cc(-c3ccc(N)cc3)[se+]c(-c3ccc(N)cc3)c2)cc1.F[P-](F)(F)(F)(F)F` fall at or above the 20% mark?
Fulfilled

Determine whether measured inhibition at 25 µM meets or exceeds 20% for `CN(C)c1ccc(-c2cc(-c3ccc(N(C)C)cc3)[se+]c(C(C)(C)C)c2)cc1.[I-]`
Fulfilled

Does the molecule `CN(C)c1ccc(-c2cc(-c3ccccc3)[se+]c(-c3ccc(N)cc3)c2)cc1.F[P-](F)(F)(F)(F)F` have recorded inhibition at 25 µM that is 20% or more?
Fulfilled

Please indicate if the recorded inhibition at 25 µM for `CN(C)c1ccc(-c2cc(-c3ccc(N(C)C)cc3)[s+]c(C(C)(C)C)c2)cc1.[I-]` meets or exceeds 20%.
Fulfilled

Determine whether this molecule has inhibition at 25 µM no lower than 20%: `CN(C)c1ccc(-c2cc(-c3ccccc3)[s+]c(-c3ccc(N)cc3)c2)cc1.F[P-](F)(F)(F)(F)F`
Not fulfilled

Record `CCCc1cc(-c2ccc(N(C)C)cc2)cc(-c2ccc(N(C)C)cc2)[s+]1.[I-]` ; criterion: inhibition at 25 µM no lower than 20%. Met?
Fulfilled

* * *

# System: MDCK-II
# PROTOCOL DETAILS: Inhibition of [3H]vinblastine transport in MDCK2 cells over expressing MDR1 assessed as [3H]vinblastine accumulation after 2.5 mins
# Type: functional, cell-based
# TEST SETTINGS: Canis lupus familiaris
READOUT KIND: IC50
Note to self: number, then unit, no commentary.

Entry `Cc1cc(C)c(-c2cc(-c3ccc(N(C)C)cc3)[te+]c(-c3ccc(N(C)C)cc3)c2)c(C)c1.F[P-](F)(F)(F)(F)F` : reported IC50 = ?
9.6 µM

* * *

# Test system: MDCK-II
# PROTOCOL DETAILS: Apparent permeability from apical to basolateral side of MDCK2 cells over expressing MDR1 after 1 hr
# Type: functional, cell-based
# TEST SETTINGS: Canis lupus familiaris
READOUT KIND: permeability (nm/s)
// units = nm/s; emit number, no label

Known permeability results, listed for orientation:
INSERT INTO assay_data (input_smiles, value_reported) VALUES
  ('CN(C)c1ccc(-c2cc(-c3ccc(N(C)C)cc3)[s+]c(C(C)(C)C)c2)cc1.[I-]', 5.3),
  ('Cc1cc(-c2ccc(N(C)C)cc2)cc(-c2ccc(N(C)C)cc2)[s+]1.[I-]', 5.8),
  ('CN(C)c1ccc(-c2cc(-c3ccccc3)[s+]c(-c3ccc(N)cc3)c2)cc1.F[P-](F)(F)(F)(F)F', 3.7);

Would you kindly share the measured permeability for `CN(C)c1ccc(-c2cc(-c3ccc(N)cc3)[s+]c(-c3ccc(N(C)C)cc3)c2)cc1.F[P-](F)(F)(F)(F)F` ?
53

What value of permeability has been reported for the following molecule? `CN(C)c1ccc(-c2cc(-c3ccc(N(C)C)cc3)[se+]c(C(C)(C)C)c2)cc1.[I-]`
2.3

Values compiled from ChEMBL document CHEMBL1142530.
